Test system: Mus musculus
Assay: Inhibition of tetrabenazine-induced ptosis (TBZ) in mice by peroral administration
Type: functional
Conditions: po
Label yes when ED50 is strictly below 5 mg/kg; at or above that, label no.

Solved entries (count: 6):
COc1ccc(C2Cc3ccccc3N=C(C)N2C)cc1 (stereo unspecified) = no
CCC1=Nc2ccccc2CC(c2ccc(OC)cc2)N1C (stereo unspecified) = yes
CN(C)CCC=C1c2ccccc2CCc2ccccc21 = yes
CCC1=Nc2ccccc2CC(c2ccc(C)cc2)N1C (stereo unspecified) = no
CC1=Nc2ccccc2CC(c2ccccc2F)N1C (stereo unspecified) = no
CCC1=Nc2ccccc2CC(c2ccc(F)cc2)N1C (stereo unspecified) = no

Ask | Item CC1=Nc2ccccc2CC(c2ccc(F)cc2)N1C (stereo unspecified) : ED50 beneath 5 mg/kg, strictly?
Reply | yes

Ask | Further, for CC1=Nc2ccccc2CC(c2ccccc2C)N1C (stereo unspecified) ?
Reply | no

Ask | // query: CC1=Nc2ccccc2CC(c2ccccc2)N1C (stereo unspecified) [DAZEPINIL]
Reply | yes

Ask | Continue with CC1=Nc2ccccc2CC(c2ccc(C)cc2)N1C (stereo unspecified)
Reply | no

Ask | Entry to check: CCC1=Nc2ccccc2CC(c2ccccc2)N1C (stereo unspecified)
Reply | yes

Ask | Try CCC1=Nc2ccccc2CC(c2ccccc2F)N1C (stereo unspecified) next.
Reply | no

Ask | And what about the molecule CCC1=Nc2ccccc2CC(c2ccccc2C)N1C (stereo unspecified) ?
Reply | yes

Ask | Do the same for CCC1=Nc2ccccc2CC(c2ccccc2Cl)N1C (stereo unspecified) please
Reply | yes

Ask | Here is the next molecule: CC1=Nc2ccccc2CC(c2ccc(Cl)cc2)N1C (stereo unspecified)
Reply | yes
